- assay.method.text: chemical genetic growth profiling, strain panel (AID 1159580);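 note: tested at 20 µM; growth read once vehicle control cultures reached saturation at 30 °C; 1 = growth at the plate median or of vehicle wells; lower values mean less growth of the strain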
- recorded.conditions: S. cerevisiae deletion strains, growth OD, locus YML120C, strain ndi1
Screen size: about 5,500 compounds; about 2,000 (36%) were called active. Another 18% or so got no clear call; they are omitted. Cut-off read from the data, not from the text of the source: active = normalized growth mostly below about 0.91 (no sharp cut-off); inconclusive = no clear call, values can overlap the other calls; inactive = mostly above about 0.92. The list shows a part of the results.
Write down the outcome that applies. Available outcomes: active, inactive

Q) Query: recorded result category for CCC(=O)O[C@H]1CCC2C3CCC4=CC(=O)CC[C@]4(C)C3CC[C@@]21C (some centres not stated) in this test
A) inactive

Q) Query: recorded result category for CN1CCc2cc3c(cc2[C@H]1C1OC(=O)c2c1ccc1c2OCO1)OCO3 (some centres not stated) in this test
A) inactive

Q) Query: recorded result category for C=C1C2CC[C@H]3[C@]4(C)C[C@H](OC5OC(CO)C(OS(=O)(=O)O)C(OS(=O)(=O)O)C5OC(=O)CC(C)C)C[C@@H](C(=O)O)[C@H]4CC[C@]3(C2)[C@H]1O (some centres not stated) in this test
A) inactive

Q) Query: recorded result category for CN(C)c1ccc(C(=C2C=CC(=[N+](C)C)C=C2)c2ccc(N(C)C)cc2)cc1 in this test
A) active

Q) Query: recorded result category for CC1=C(CC(=O)O)c2cc(F)ccc2/C1=C\c1ccc(S(C)=O)cc1 (configuration not stated) in this test
A) inactive

Q) Query: recorded result category for CN(C)CC/C=C1\c2ccccc2Sc2ccc(Cl)cc21 in this test
A) inactive

Q) Query: recorded result category for C[C@]12CCC(=O)C=C1CCC1C2CC[C@@]2(C)C1CC[C@@H]2O (some centres not stated) in this test
A) inactive

Q) Query: recorded result category for NC(=O)C(c1ccccc1)(c1ccccc1)C1CCN(CCc2ccc3c(c2)CCO3)C1 (configuration not stated) in this test
A) inactive

Q) Query: recorded result category for C[C@H]1CC2C([C@@H](O)C[C@@]3(C)C2CC[C@]3(O)C(=O)CO)[C@@]2(C)C=CC(=O)C=C12 (some centres not stated) in this test
A) inactive

Q) Query: recorded result category for O=C1C=CC(=C(c2ccc(O)cc2)c2ccc(O)cc2)C=C1 in this test
A) inactive

Q) Query: recorded result category for NC(=O)c1ccc[n+]([C@@H]2O[C@H](COP(=O)([O-])OP(=O)(O)OC[C@H]3O[C@@H](n4cnc5c(N)ncnc54)[C@H](O)[C@@H]3O)[C@@H](O)[C@H]2O)c1 in this test
A) inactive

Q) Query: recorded result category for c1cncc(C2CCCCN2)c1 (configuration not stated) in this test
A) inactive

Q) Query: recorded result category for CCN(CCO)CCCC(C)Nc1ccnc2cc(Cl)ccc12 (configuration not stated) in this test
A) inactive

Q) Query: recorded result category for COc1cc(O)c(C(=O)/C=C/c2ccc(O)c(OC)c2)c(OC)c1 in this test
A) inactive

Q) Query: recorded result category for CCN(CC)CCCC(C)Nc1c2ccc(Cl)cc2nc2ccc(OC)cc12 (configuration not stated) in this test
A) inactive

Q) Query: recorded result category for CN[C@@H](C)[C@@H](O)c1ccccc1 in this test
A) inactive

Q) Query: recorded result category for COc1cc(O)c(C(=O)/C=C/c2ccc(OC)c(O)c2)c(OC)c1 in this test
A) active

Q) Query: recorded result category for CCOC(=O)c1c(C)cc(O)c(C=O)c1O in this test
A) active

Q) Query: recorded result category for CC(=O)[C@H]1CCC2C3CCC4=CC(=O)CC[C@]4(C)C3CC[C@@]21C (some centres not stated) in this test
A) inactive

Q) Query: recorded result category for CCOC(=O)c1c(C)c(Cl)c(O)c(Cl)c1O in this test
A) active

Q) Query: recorded result category for O=C(O)c1c2ccccc2cc2ccccc12 in this test
A) inactive

Q) Query: recorded result category for O=C(O)c1cc2ccccc2c(Cc2c(O)c(C(=O)O)cc3ccccc23)c1O in this test
A) inactive

Q) Query: recorded result category for C=C(C)C1CNC(C(=O)O)C1CC(=O)O (configuration not stated) in this test
A) inactive

Q) Query: recorded result category for Cc1cc(O)c(C)c(O)c1C(=O)O in this test
A) inactive

Q) Query: recorded result category for NCCSSCCN in this test
A) inactive

Q) Query: recorded result category for CN(C)C(=S)SSC(=S)N(C)C in this test
A) active

Q) Query: recorded result category for COc1cc(O)c(C(=O)/C=C/c2ccccc2)c(OC)c1 in this test
A) active

Q) Query: recorded result category for COc1cc2c(cc1OC)Cc1cc(OC)c(OC)cc1Cc1cc(OC)c(OC)cc1C2 in this test
A) inactive

Q) Query: recorded result category for CCCCNc1cc(C(=O)O)cc(S(N)(=O)=O)c1Oc1ccccc1 in this test
A) inactive

Q) Query: recorded result category for Oc1cc(Cl)ccc1Oc1ccc(Cl)cc1Cl in this test
A) active

Q) Query: recorded result category for CC(=O)O[C@@H]1C[C@@]2(C)C(CC[C@@H]2C(C)=O)C2CCC3=CC(=O)CC[C@]3(C)C21 (some centres not stated) in this test
A) inactive

Q) Query: recorded result category for ClC1=C(Cl)C2(Cl)C3C(Cl)C=CC3C1(Cl)C2(Cl)Cl (configuration not stated) in this test
A) inactive

Q) Query: recorded result category for COc1cc(/C=C/C(=O)/C=C(O)/C=C/c2ccc(O)c(OC)c2)ccc1O in this test
A) active

Q) Query: recorded result category for COC1=C(OC)C(=O)C(C/C=C(\C)CC/C=C(\C)CC/C=C(\C)CC/C=C(/C)CC/C=C(\C)CC/C=C(\C)CC/C=C(\C)CC/C=C(\C)CC/C=C(\C)CCC=C(C)C)=C(C)C1=O in this test
A) inactive

Q) Query: recorded result category for CC(N)C(=O)OC(C)(C)Cc1ccc(Cl)cc1 (configuration not stated) in this test
A) inactive

Q) Query: recorded result category for CC(=O)NC1SCCC1=O (configuration not stated) in this test
A) inactive

Q) Query: recorded result category for CCN(CC)CCCC(C)Nc1ccnc2cc(Cl)ccc12 (configuration not stated) in this test
A) inactive

Q) Query: recorded result category for COc1ccc2c(c1OC)C(=O)O[C@H]2[C@H]1c2cc3c(cc2CCN1C)OCO3 in this test
A) inactive

Q) Query: recorded result category for COc1cc2c(cc1OC)C(=O)OC2 in this test
A) inactive

Q) Query: recorded result category for CC(=O)O[C@H]1[C@@H]2[C@@H](OC(=O)Cc3ccccc3)[C@@H](C)C[C@]2(OC(C)=O)C(=O)/C(C)=C/[C@H]2[C@H](CC[C@@]13CO3)C2(C)C in this test
A) inactive

Q) Query: recorded result category for CCN(CC)CCNC(=O)c1cc(Br)c(N)cc1OC in this test
A) inactive

Q) Query: recorded result category for CC(C)OC(=O)C(C)(C)Oc1ccc(C(=O)c2ccc(Cl)cc2)cc1 in this test
A) inactive

* * *

- assay.method.text: chemical genetic growth profiling, strain panel (AID 1159580);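 note: tested at 20 µM; growth read once vehicle control cultures reached saturation at 30 °C; 1 = growth at the plate median or of vehicle wells; lower values mean less growth of the strain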
- recorded.conditions: S. cerevisiae deletion strains, growth OD, locus YMR058W, strain fet3, hits give low values
Hit rate of the full screen: of about 5,500 compounds, about 2,000 (36%) were called active. Not shown: some 18% with an inconclusive outcome. The list shows a part of the results.
Please provide measured normalized growth for the entries that follow.
Would you mind answering with just the numeric figure?

Given item COc1ccc2c(c1)OCc1c-2oc2cc(OC)ccc12 , the value recorded as its normalized growth is 0.699

Given item COc1ccc2c(C)cc(=O)oc2c1 , the value recorded as its normalized growth is 0.987

Given item NC(=O)c1ccc[n+]([C@@H]2O[C@H](COP(=O)([O-])OP(=O)(O)OC[C@H]3O[C@@H](n4cnc5c(N)ncnc54)[C@H](O)[C@@H]3O)[C@@H](O)[C@H]2O)c1 , the value recorded as its normalized growth is 1.04

Given item CC1(C)OC(=O)NC1=O , the value recorded as its normalized growth is 1.03

Given item O=C1C=CC(=C(c2ccc(O)cc2)c2ccc(O)cc2)C=C1 , the value recorded as its normalized growth is 0.982

Given item CCCCCCCCCCCCCCCC[N+](C)(C)C , the value recorded as its normalized growth is 0.0569

Given item CCCCNc1cc(C(=O)O)cc(S(N)(=O)=O)c1Oc1ccccc1 , the value recorded as its normalized growth is 1.06

Given item CC(C[N+](C)(C)C)OC(N)=O (stereo not drawn) , the value recorded as its normalized growth is 1.03

Given item C[C@]12CCC(=O)C=C1CCC1C2CC[C@@]2(C)C1CC[C@@H]2O (stereo partly drawn) , the value recorded as its normalized growth is 0.993

Given item COCCc1ccc(OCC(O)CNC(C)C)cc1 (stereo not drawn) , the value recorded as its normalized growth is 0.989

Given item CN1CCC(=C2c3ccccc3Sc3ccccc32)CC1 , the value recorded as its normalized growth is 1.01

Given item CC(=O)OCC[N+](C)(C)C , the value recorded as its normalized growth is 1.05

Given item CCN(CCO)CCCC(C)Nc1ccnc2cc(Cl)ccc12 (stereo not drawn) , the value recorded as its normalized growth is 1

Given item CC(C)c1c(C(=O)c2ccccc2)c(-c2ccccc2)c(-c2ccc(F)cc2)n1CC[C@@H](O)C[C@@H](O)CC(=O)O , the value recorded as its normalized growth is 0.909

Given item COc1cc2c(cc1OC)[C@@H]1C(=O)c3ccc(O)c(CC=C(C)C)c3O[C@@H]1CO2 , the value recorded as its normalized growth is 1

Given item COc1ccc2c(c1)O[C@@H]1COc3cc(OC)c(OC)cc3[C@@H]1C2=O , the value recorded as its normalized growth is 0.537

Given item CCC(=O)O[C@H]1CCC2C3CCC4=CC(=O)CC[C@]4(C)C3CC[C@@]21C (stereo partly drawn) , the value recorded as its normalized growth is 0.916

Given item CN1CCC(=C2c3ccccc3CCc3sccc32)CC1 , the value recorded as its normalized growth is 0.955

Given item CC(=O)[C@H]1CCC2C3CCC4=CC(=O)CC[C@]4(C)C3CC[C@@]21C (stereo partly drawn) , the value recorded as its normalized growth is 0.923

Given item CN1CCc2cc3c(cc2[C@H]1C1OC(=O)c2c1ccc1c2OCO1)OCO3 (stereo partly drawn) , the value recorded as its normalized growth is 0.969

Given item CN1CCC(=C2c3ccccc3CC(=O)c3sccc32)CC1 , the value recorded as its normalized growth is 0.979

Given item COc1cc2c(cc1OC)[C@@H]1C(=O)c3ccc(OC)c(CC=C(C)C)c3O[C@@H]1CO2 , the value recorded as its normalized growth is 1.03

Given item CN(C)C(=S)SSC(=S)N(C)C , the value recorded as its normalized growth is 0.0575
